This collection of values is drawn from patent US20240307374A1.

Reported S: solubility values follow for various compounds
# experimental_details: Equilibrium solubility in pH buffers (pH 4.0-6.0) with pH adjustment
# Format: physicochemical
# condition: pH = 4.0 buffer (50 mM citrate), RT, with pH adjustment
Where a name gives a salt, the structure may show the parent alone.
Express the result in mg/mL but write the number alone.

# S: solubility lookup, item CC(=O)NCC1CCN(Cc2cc(Oc3ccc(N4CCN(CCC(=O)O)CC4)nc3)nc(-c3cc(Cl)cc(Cl)c3)c2)CC1 [Sulfate Type B]
2.29

***
# S: solubility lookup, item CC(=O)NCC1CCN(Cc2cc(Oc3ccc(N4CCN(CCC(=O)O)CC4)nc3)nc(-c3cc(Cl)cc(Cl)c3)c2)CC1 [HCl salt Type F]
1.52

# S: solubility lookup, item CC(=O)NCC1CCN(Cc2cc(Oc3ccc(N4CCN(CCC(=O)O)CC4)nc3)nc(-c3cc(Cl)cc(Cl)c3)c2)CC1 [Fumarate Type A]
3.04
